# Test system: MOLT-4 leukemia
# assay name: NCI tumour cell line growth inhibition, 48 h
Answer each item with its documented TGI.

Provide the reported TGI (system: MOLT-4 leukemia) for COc1ccc(-c2c3c(n(C4OC(CO)C(O)C(O)C4O)c(=S)c2C#N)CC(C)(C)CC3=O)cc1 (stereo not given)
> 100 µM

Provide the reported TGI (system: MOLT-4 leukemia) for O=C1SC(c2ccc(Cl)cc2)(c2ccc(Cl)cc2)c2ccccc21
> 100 µM

Provide the reported TGI (system: MOLT-4 leukemia) for COc1ccc(C2SC(N)=Nc3c2c(C)nn3C(=O)c2ccc(Cl)cc2)cc1 (stereo not given)
> 10 µM

Provide the reported TGI (system: MOLT-4 leukemia) for CCc1ccc(/C(C)=N/NC(N)=S)cc1
> 100 µM

Provide the reported TGI (system: MOLT-4 leukemia) for CN(/N=C/c1ccnc2ccccc12)c1ccc([N+](=O)[O-])cc1[N+](=O)[O-]
> 100 µM
